test: Cytotoxicity against human U937 cells assessed as cell viability at 20 ug/ml after 72 hrs by MTT assay; format: cell-based, U-937; conditions: read-out: Activity
reported-metric: viability at 72 h, 20 ug/ml (%)
All answers are understood in %, so give the number only.

Inquiry: Suppose we examine the molecule "CCCCC(=O)O/N=C1\c2ccccc2-c2c1c(-n1ccnc1)nc1ccc(Br)cc21" ; what viability at 72 h, 20 ug/ml value has been reported?
Reply text: 51

Inquiry: Suppose we examine the molecule "CC(C)(C)OC(=O)N1CCC[C@H]1C(=O)O/N=C1\c2ccccc2-c2c1c(N1CCN(c3ccccn3)CC1)nc1ccc(Br)cc21" ; what viability at 72 h, 20 ug/ml value has been reported?
Reply text: 69

Inquiry: Suppose we examine the molecule "CC(=O)O/N=C1\c2ccccc2-c2c1c(-n1ccnc1)nc1ccc(Br)cc21" ; what viability at 72 h, 20 ug/ml value has been reported?
Reply text: 42

Inquiry: Suppose we examine the molecule "CCCC(=O)O/N=C1\c2ccccc2-c2c1c(-n1ccnc1)nc1ccc(Br)cc21" ; what viability at 72 h, 20 ug/ml value has been reported?
Reply text: 70

----------
Please respond with reported logD for every item in the list.
test: Octanol-water partition coefficient, log P of the compound at pH 7.4 at room temperature by UV spectrophotometric analysis; type: physicochemical
// return just the number, without any unit appended

Inquiry: Suppose we examine the molecule CCCCC(=O)OC1(C)c2ccccc2-c2c1c(-n1ccnc1)nc1ccc(Br)cc21 (centres undefined) ; what logD value has been reported?
Reply text: 1.7

Inquiry: Suppose we examine the molecule CC1(OC(=O)CC(F)(F)F)c2ccccc2-c2c1c(-n1ccnc1)nc1ccc(Br)cc21 (centres undefined) ; what logD value has been reported?
Reply text: 1.8

Inquiry: Suppose we examine the molecule CC1(O)c2ccccc2-c2c1c(-n1ccnc1)nc1ccc(Br)cc21 (centres undefined) ; what logD value has been reported?
Reply text: 1.7

Inquiry: Suppose we examine the molecule "CCCCCCCCCC(=O)O/N=C1\c2ccccc2-c2c1c(-n1ccnc1)nc1ccc(Br)cc21" ; what logD value has been reported?
Reply text: 1.4

Inquiry: Suppose we examine the molecule "CCCCCC(=O)O/N=C1\c2ccccc2-c2c1c(-n1ccnc1)nc1ccc(Br)cc21" ; what logD value has been reported?
Reply text: 2.1

Inquiry: Suppose we examine the molecule "CCCC(=O)O/N=C1\c2ccccc2-c2c1c(-n1ccnc1)nc1ccc(Br)cc21" ; what logD value has been reported?
Reply text: 1.5

Inquiry: Suppose we examine the molecule "CC(C)(C)OC(=O)N[C@H](C(=O)O/N=C1\c2ccccc2-c2c1c(N1CCN(c3ccccn3)CC1)nc1ccc(Br)cc21)C(C)(C)C" ; what logD value has been reported?
Reply text: 1.5

Inquiry: Suppose we examine the molecule "CCCCCCC(=O)O/N=C1\c2ccccc2-c2c1c(-n1ccnc1)nc1ccc(Br)cc21" ; what logD value has been reported?
Reply text: 1.5

Inquiry: Suppose we examine the molecule "C[C@H](NC(=O)OC(C)(C)C)C(=O)O/N=C1\c2ccccc2-c2c1c(N1CCN(c3ccccn3)CC1)nc1ccc(Br)cc21" ; what logD value has been reported?
Reply text: 1.7

----------
experiment: Octanol-water partition coefficient, log P of the compound at pH 7.4 at room temperature by UV spectrophotometric analysis; format: physicochemical
API: label(entry) gives yes (1) if the entry's logD is strictly smaller than 2; on equality or larger values it gives no (0).

Inquiry: State whether 2 exceeds logD recorded for "O/N=C1\c2ccccc2-c2c1c(N1CCN(c3ccccn3)CC1)nc1ccc(Br)cc21" .
Reply text: no (0)

Inquiry: State whether 2 exceeds logD recorded for CC(C)(C)OC(=O)NC(Cc1ccccc1)C(=O)O/N=C1\c2ccccc2-c2c1c(N1CCN(c3ccccn3)CC1)nc1ccc(Br)cc21 (centres undefined) .
Reply text: yes (1)

Inquiry: State whether 2 exceeds logD recorded for "CCCCCCCCC(=O)O/N=C1\c2ccccc2-c2c1c(-n1ccnc1)nc1ccc(Br)cc21" .
Reply text: yes (1)

Inquiry: State whether 2 exceeds logD recorded for "CCCCCC(=O)O/N=C1\c2ccccc2-c2c1c(N1CCN(c3ccccn3)CC1)nc1ccc(Br)cc21" .
Reply text: no (0)

Inquiry: State whether 2 exceeds logD recorded for "O=C(CCCCBr)O/N=C1\c2ccccc2-c2c1c(N1CCN(c3ccccn3)CC1)nc1ccc(Br)cc21" .
Reply text: yes (1)

Inquiry: State whether 2 exceeds logD recorded for "CN(C)C(=O)O/N=C1\c2ccccc2-c2c1c(N1CCN(c3ccccn3)CC1)nc1ccc(Br)cc21" .
Reply text: no (0)

Inquiry: State whether 2 exceeds logD recorded for CCCCCCCCC(=O)OC1(C)c2ccccc2-c2c1c(-n1ccnc1)nc1ccc(Br)cc21 (centres undefined) .
Reply text: yes (1)

Inquiry: State whether 2 exceeds logD recorded for "CC(=O)NCC(=O)O/N=C1\c2ccccc2-c2c1c(N1CCN(c3ccccn3)CC1)nc1ccc(Br)cc21" .
Reply text: yes (1)

Inquiry: State whether 2 exceeds logD recorded for CC(=O)OC1(C)c2ccccc2-c2c1c(-n1ccnc1)nc1ccc(Br)cc21 (centres undefined) .
Reply text: no (0)

Inquiry: State whether 2 exceeds logD recorded for "O=C(/C=C/c1ccco1)O/N=C1\c2ccccc2-c2c1c(N1CCN(c3ccccn3)CC1)nc1ccc(Br)cc21" .
Reply text: yes (1)

Inquiry: State whether 2 exceeds logD recorded for CCCCCCC(=O)OC1(C)c2ccccc2-c2c1c(-n1ccnc1)nc1ccc(Br)cc21 (centres undefined) .
Reply text: yes (1)

Inquiry: State whether 2 exceeds logD recorded for CC(C)(C)OC(=O)NCC(=O)OC1(C)c2ccccc2-c2c1c(-n1ccnc1)nc1ccc(Br)cc21 (centres undefined) .
Reply text: yes (1)

Inquiry: State whether 2 exceeds logD recorded for CC(C)(C)OC(=O)NC(Cc1cccc(F)c1)C(=O)O/N=C1\c2ccccc2-c2c1c(N1CCN(c3ccccn3)CC1)nc1ccc(Br)cc21 (centres undefined) .
Reply text: yes (1)

Inquiry: State whether 2 exceeds logD recorded for CN(C)C(=O)OC1(C)c2ccccc2-c2c1c(-n1ccnc1)nc1ccc(Br)cc21 (centres undefined) .
Reply text: yes (1)

Inquiry: State whether 2 exceeds logD recorded for "CCC(=O)O/N=C1\c2ccccc2-c2c1c(N1CCN(c3ccccn3)CC1)nc1ccc(Br)cc21" .
Reply text: no (0)

Inquiry: State whether 2 exceeds logD recorded for "CC(C)[C@H](NC(=O)OCC1c2ccccc2-c2ccccc21)C(=O)O/N=C1\c2ccccc2-c2c1c(N1CCN(c3ccccn3)CC1)nc1ccc(Br)cc21" .
Reply text: yes (1)

Inquiry: State whether 2 exceeds logD recorded for "CC(C)(C)OC(=O)NCC(=O)O/N=C1\c2ccccc2-c2c1c(N1CCN(c3ccccn3)CC1)nc1ccc(Br)cc21" .
Reply text: yes (1)

Inquiry: State whether 2 exceeds logD recorded for CCCCCCCC(=O)OC1(C)c2ccccc2-c2c1c(-n1ccnc1)nc1ccc(Br)cc21 (centres undefined) .
Reply text: yes (1)

Inquiry: State whether 2 exceeds logD recorded for "CC(=O)O/N=C1\c2ccccc2-c2c1c(-n1ccnc1)nc1ccc(Br)cc21" .
Reply text: yes (1)

----------
test: Cytotoxicity against human U937 cells assessed as cell viability at 1.25 ug/ml after 72 hrs by MTT assay; format: cell-based, U-937; conditions: read-out: Activity
reported-metric: viability at 72 h, 1.25 ug/ml (%)
All answers are understood in %, so give the number only.

Inquiry: Suppose we examine the compound "CC(C)[C@H](NC(=O)OCC1c2ccccc2-c2ccccc21)C(=O)O/N=C1\c2ccccc2-c2c1c(N1CCN(c3ccccn3)CC1)nc1ccc(Br)cc21" ; what viability at 72 h, 1.25 ug/ml value has been reported?
Reply text: 85

Inquiry: Suppose we examine the compound CN(C)C(=O)OC1(C)c2ccccc2-c2c1c(-n1ccnc1)nc1ccc(Br)cc21 (centres undefined) ; what viability at 72 h, 1.25 ug/ml value has been reported?
Reply text: 63

Inquiry: Suppose we examine the compound "O=C(/C=C/c1ccco1)O/N=C1\c2ccccc2-c2c1c(N1CCN(c3ccccn3)CC1)nc1ccc(Br)cc21" ; what viability at 72 h, 1.25 ug/ml value has been reported?
Reply text: 100

Inquiry: Suppose we examine the compound CC1(OC(=O)CC(F)(F)F)c2ccccc2-c2c1c(-n1ccnc1)nc1ccc(Br)cc21 (centres undefined) ; what viability at 72 h, 1.25 ug/ml value has been reported?
Reply text: 92

----------
experiment: Cytotoxicity against human U937 cells assessed as cell viability at 1.25 ug/ml after 72 hrs by MTT assay; assay type: cell-based, U-937; details: read-out: Activity
reported-metric: viability at 72 h, 1.25 ug/ml (%)
All answers are understood in %, so give the number only.

Inquiry: Suppose we examine the compound "O/N=C1\c2ccccc2-c2c1c(N1CCN(c3ccccn3)CC1)nc1ccc(Br)cc21" ; what viability at 72 h, 1.25 ug/ml value has been reported?
Reply text: 100

Inquiry: Suppose we examine the compound CCCCCCCC(=O)OC1(C)c2ccccc2-c2c1c(-n1ccnc1)nc1ccc(Br)cc21 (centres undefined) ; what viability at 72 h, 1.25 ug/ml value has been reported?
Reply text: 87

Inquiry: Suppose we examine the compound "CC(=O)NCC(=O)O/N=C1\c2ccccc2-c2c1c(N1CCN(c3ccccn3)CC1)nc1ccc(Br)cc21" ; what viability at 72 h, 1.25 ug/ml value has been reported?
Reply text: 83

Inquiry: Suppose we examine the compound "CCCCCCCCC(=O)O/N=C1\c2ccccc2-c2c1c(-n1ccnc1)nc1ccc(Br)cc21" ; what viability at 72 h, 1.25 ug/ml value has been reported?
Reply text: 87

Inquiry: Suppose we examine the compound "O/N=C1\c2ccccc2-c2c1c(-n1ccnc1)nc1ccc(Br)cc21" ; what viability at 72 h, 1.25 ug/ml value has been reported?
Reply text: 100

Inquiry: Suppose we examine the compound "CN(C)C(=O)O/N=C1\c2ccccc2-c2c1c(-n1ccnc1)nc1ccc(Br)cc21" ; what viability at 72 h, 1.25 ug/ml value has been reported?
Reply text: 77

Inquiry: Suppose we examine the compound CC1(O)c2ccccc2-c2c1c(-n1ccnc1)nc1ccc(Br)cc21 (centres undefined) ; what viability at 72 h, 1.25 ug/ml value has been reported?
Reply text: 93

Inquiry: Suppose we examine the compound CC(C)(C)OC(=O)NCC(=O)OC1(C)c2ccccc2-c2c1c(-n1ccnc1)nc1ccc(Br)cc21 (centres undefined) ; what viability at 72 h, 1.25 ug/ml value has been reported?
Reply text: 90

Inquiry: Suppose we examine the compound "CC(=O)O/N=C1\c2ccccc2-c2c1c(-n1ccnc1)nc1ccc(Br)cc21" ; what viability at 72 h, 1.25 ug/ml value has been reported?
Reply text: 87
